Recorded koff, one value per entry.
- TESTED TARGET: T1, human PD-1 (recombinant, titrated in BIAcore) (human, UniProt Q15116 25-170)
- T1 construct: extracellular domain; also called recombinant human PD-1 extracellular domain
- T1 sequence (Q15116 25-170): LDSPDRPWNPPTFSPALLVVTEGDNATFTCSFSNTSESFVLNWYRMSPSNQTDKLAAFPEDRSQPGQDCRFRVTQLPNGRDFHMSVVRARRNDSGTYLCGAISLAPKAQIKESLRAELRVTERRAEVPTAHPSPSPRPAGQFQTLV
- TEST SUMMARY: SPR BIAcore 3000; antibody captured by anti-human Fc, human PD-1 titrated;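 note: CM5 chip with amine-coupled goat anti-human Fc F(ab′)₂, HBS-EP running buffer at 10 µL/min, blank-surface-subtracted sensorgrams fitted in BIAevaluation 3.2 for kinetic constants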
Please respond with the number in s⁻¹ and leave the unit unwritten.

Examples with answers:
>>> meas_value("949 VK1 gL11 gH1a (antibody, V domains shown, Humanised; human kappa constant (Km3)) VH: EVQLVQSGAEVKKPGASVKVSCKAFGYTFTTYPIEWMRQAHGQGLEWIGNFHPYNDDTKYNEKFKGRVTMTVDKSTTTVYMELSSLRSEDTAVYYCARENYGSHGGFVYWGQGTLVTVS VL: ENVLTQSPFSLSASVGDRVTITCRASSSVISSYLHWYQQKPAKAPKLWIYSTSNLASGVPDRFSGSGSGTSYTLTISSLQPEDFATYYCQQYNSYPLTFGGGTKVEIK")
0.00115
>>> meas_value("949 VK3 gL1 gH1b (antibody, V domains shown, Humanised; human kappa constant (Km3)) VH: EVQLVQSGAEVKKPGSSVKVSCKAFGYTFTTYPIEWMRQAHGQGLEWIGNFHPYNDDTKYNEKFKGRVTITVDKSTTTVYMELSSLRSEDTAVYYCARENYGSHGGFVYWGQGTLVTVS VL: ENVLTQSPGTLSLSPGERATLSCRASSSVISSYLHWYQQKPGQAPRLWIYSTSNLASGVPDRFSGSGSGTSYTLTISRLEPEDFATYYCQQYNGYPLTFGGGTKVEIK")
0.00065

Return reported koff; argument: 949 VK1 gL1 gH1a (antibody, V domains shown, Humanised; human kappa constant (Km3); Heavy V regions were cloned into gamma-4P (S241P), gamma-4P delta Lys and gamma-1 delta Lys vectors) VH: EVQLVQSGAEVKKPGASVKVSCKAFGYTFTTYPIEWMRQAHGQGLEWIGNFHPYNDDTKYNEKFKGRVTMTVDKSTTTVYMELSSLRSEDTAVYYCARENYGSHGGFVYWGQGTLVTVS VL: ENVLTQSPFSLSASVGDRVTITCRASSSVISSYLHWYQQKPAKAPKLWIYSTSNLASGVPDRFSGSGSGTSYTLTISSLQPEDFATYYCQQYNGYPLTFGGGTKVEIK 0.000782
